Experiment: Bioavailability and pharmacokinetic studies in beagle dog model
Assay type: in vivo
Conditions: male, beagle, dog, plasma, iv, 5 mg, dogs; intravenous bolus, 5 mg cladribine/animal; Mean of 6 dogs; read-out: t½ terminal (converted)

record-smiles | half-life / h
Nc1nc(Cl)nc2c1ncn2[C@H]1C[C@H](O)[C@@H](CO)O1 | 10.3

---

Assay: Bioavailability and pharmacokinetic studies in beagle dog model
Type: in vivo
Conditions: male, beagle, dog, plasma, iv, 5 mg, dogs; intravenous bolus, 5 mg cladribine/animal; Mean of 6 dogs; read-out: Cltot/kg

record-smiles | unit-abbreviation | clearance
Nc1nc(Cl)nc2c1ncn2[C@H]1C[C@H](O)[C@@H](CO)O1 | L/h/kg | 1.04

---

Assay: Bioavailability and pharmacokinetic studies in beagle dog model
Format: in vivo
Details: male, beagle, dog, plasma, iv, 5 mg, dogs; after intravenous administration; read-out: terminal elimination half-life (converted)

molecule | half-life
Nc1nc(Cl)nc2c1ncn2[C@H]1C[C@H](O)[C@@H](CO)O1 [cladribine, 2-chloro-2′-deoxyadenosine] | ~600 min

---

Assay: Bioavailability and pharmacokinetic studies in beagle dog model
Assay type: in vivo
Settings: male, beagle, dog, plasma, iv, 5 mg/animal, dogs; intravenous bolus, 5 mg cladribine/animal; Mean of 6 dogs; read-out: Cfirst (first measured concentration at 5 minutes)

record-smiles | unit-abbreviation | concentration at 5 min
Nc1nc(Cl)nc2c1ncn2[C@H]1C[C@H](O)[C@@H](CO)O1 | ng/mL | 479

---

Test: Bioavailability and pharmacokinetic studies in beagle dog model
Format: in vivo
Conditions: male, beagle, dog, plasma, iv, 5 mg, dogs; intravenous bolus, 5 mg cladribine/animal; Mean of 6 dogs; read-out: AUC

record-smiles | unit-abbreviation | AUC
Nc1nc(Cl)nc2c1ncn2[C@H]1C[C@H](O)[C@@H](CO)O1 | ng·h/mL | 382
